EXPERIMENTAL_TARGET: human 5-HT1A receptor (Homo sapiens)
Construct: expressed in transfected cells; host or cells: CHO cells (stably transfected)
Sequence (P08908 1-422): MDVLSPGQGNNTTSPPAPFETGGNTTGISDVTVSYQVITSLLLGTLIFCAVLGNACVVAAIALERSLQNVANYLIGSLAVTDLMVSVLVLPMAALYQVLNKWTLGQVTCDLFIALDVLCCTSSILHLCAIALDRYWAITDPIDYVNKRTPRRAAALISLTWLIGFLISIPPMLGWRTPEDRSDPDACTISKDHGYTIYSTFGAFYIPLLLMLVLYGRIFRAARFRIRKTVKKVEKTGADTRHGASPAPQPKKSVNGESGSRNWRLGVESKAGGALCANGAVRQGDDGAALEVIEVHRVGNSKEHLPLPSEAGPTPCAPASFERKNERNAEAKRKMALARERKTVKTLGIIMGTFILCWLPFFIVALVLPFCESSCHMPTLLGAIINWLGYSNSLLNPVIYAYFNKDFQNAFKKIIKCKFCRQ
ASSAY_PROCEDURE: Displacement of [3H] 8-OHDPAT from the 5-HT1A receptor in transfected CHO cells
Type: binding
pIC50: −log10 of the molar value.
ASSAY_READOUT: pIC50

{"SMILES_REPR": "COc1ccccc1C1=CCN(C[C@@H](CC2CCCCC2)NC(=O)C2(C)CCCCC2)CC1", "ASSAY_READOUT": "pIC50", "RECORDED_RESULT": 8.56}

* * *

Each entry below carries its recorded pIC50.
EXPERIMENTAL_TARGET: human 5-HT1A receptor (Homo sapiens)
Construct: expressed in transfected cells; host or cells: CHO cells (stably transfected)
ASSAY_PROCEDURE: Displacement of [3H] 8-OHDPAT from the 5-HT1A receptor in transfected CHO cells
Assay type: binding
MEASUREMENT_PARAMETERS: displacement of [3H] 8-OHDPAT; CHO cells stably transfected with the human 5-HT1A receptor; read-out: 5-HT1A Affinity (IC50)
pIC50: −log10 of the molar value.

{"SMILES_REPR": "CN(C(=O)C1(C)CCCCC1)[C@H](CC1CCCCC1)CN1CCN(c2cccc3c2OCCO3)CC1", "EXPERIMENTAL_TARGET": "human 5-HT1A receptor (Homo sapiens)", "pIC50": 8.16}
{"SMILES_REPR": "O=C(N[C@H](CC1CCCCC1)CN1CCN(c2ncccn2)CC1)C1CCCCC1", "EXPERIMENTAL_TARGET": "human 5-HT1A receptor (Homo sapiens)", "pIC50": 9.15}
{"SMILES_REPR": "COc1ccccc1N1CCN(C[C@@H](CC2CCCCC2)N(C)C(=O)C2CCCCC2)CC1", "EXPERIMENTAL_TARGET": "human 5-HT1A receptor (Homo sapiens)", "pIC50": 8.84}
{"SMILES_REPR": "COc1ccccc1N1CCN(C[C@@H](CC2CCCCC2)NC(=O)C2(C)CCCCC2)CC1", "EXPERIMENTAL_TARGET": "human 5-HT1A receptor (Homo sapiens)", "pIC50": 8.91}
{"SMILES_REPR": "COc1ccccc1C1CCN(C[C@@H](CC2CCCCC2)NC(=O)C2CCCCC2)CC1", "EXPERIMENTAL_TARGET": "human 5-HT1A receptor (Homo sapiens)", "pIC50": 8.97}
{"SMILES_REPR": "COc1ccccc1C1CCN(C[C@@H](CC2CCCCC2)NC(=O)C(C)(C)C)CC1", "EXPERIMENTAL_TARGET": "human 5-HT1A receptor (Homo sapiens)", "pIC50": 8.66}
{"SMILES_REPR": "COc1ccccc1N1CCN(C[C@@H](CC2CCCCC2)N(C)C(=O)C2(C)CCCCC2)CC1", "EXPERIMENTAL_TARGET": "human 5-HT1A receptor (Homo sapiens)", "pIC50": 8.55}
{"SMILES_REPR": "COc1ccccc1C1CCN(C[C@@H](CC2CCCCC2)N(C)C(=O)C(C)(C)C)CC1", "EXPERIMENTAL_TARGET": "human 5-HT1A receptor (Homo sapiens)", "pIC50": 8.30}
